Data provenance: PubChem BioAssay (NCI)

Tested on: SNB-75 CNS
RUN_DESCRIPTION: NCI tumour cell line growth inhibition, 48 h
Collected TGI values appear next to each entry.
The figure you give is taken to be in µM; do not add the unit.

Record excerpt, results attached:
NC1=Nc2ccccc2Sc2nccn21 :: 54.3
C[C@]12CC[C@@H]3c4ccc(O)cc4CC[C@H]3[C@@H]1CC(Cc1ccccc1)(Cc1ccccc1)C2=O :: 34.5
N=C1c2ccccc2C(=O)c2c(NCCNCCO)ccc(O)c21 :: 49.3

--- query ---
Inquiry: Look up TGI with SNB-75 CNS for this compound: `NS(=O)(=O)c1ccc(N=Nc2ccc(O)cc2)cc1`
Reply text: 88.9

* * *

Test system: KM12 colon
RUN_DESCRIPTION: NCI tumour cell line growth inhibition, 48 h
Where a SMILES comes first, the peptide text is derived from it.
VALUE_TYPE: TGI (µM)
The figure you give is taken to be in µM; do not add the unit.

CC(=O)NC(CS)C(=O)NC(CO)C(=O)NC(CO)C(=O)NC(Cc1c[nH]c2ccccc12)C(=O)N1CCCC1C(=O)NC(CO)C(=O)NC(Cc1c[nH]c2ccccc12)C(=O)NC(Cc1c[nH]cn1)C(=O)NC(CO)C(=O)NC(Cc1c[nH]c2ccccc12)C(=O)NCC(=O)NCC(=O)NC(C)C(=O)NC(CCC(N)=O)C(=O)NC(CCCCN)C(=O)NC(C)C(=O)NC(CCCNC(=N)N)C(=O)NC(CCCCN)C(N)=O (centres undefined) (Ac-CSSWPSWHSWGGAQKARK-NH2; configuration not given here) :: 32.1
O=C(Nc1ccc(Cl)cc1)c1cc(NCc2cc(O)ccc2O)ccc1O :: 14.6
C/C(COc1ccc2oc(-c3ccccc3)cc(=O)c2c1)=N\O :: 39.7

Inquiry: Look up TGI with KM12 colon for this molecule: `CCCCCCCCCCCCCCCCCC1=NC(C)(C)CN1C(C)(C)CO`
Reply text: 2.64

Inquiry: Look up TGI with KM12 colon for this molecule: `O=CC1=CCCN(CCc2c[nH]c3ccccc23)C1`
Reply text: 128

* * *

Test system: NCI/ADR-RES ovarian
RUN_DESCRIPTION: NCI tumour cell line growth inhibition, 48 h
VALUE_TYPE: GI50

CC[C@H](C)[C@H](NC(=O)c1ncccn1)C(=O)N(C)[C@H](C[C@@H](OC(C)=O)c1nc(C(=O)N[C@@H](Cc2ccccc2)C[C@H](C)C(=O)OC)cs1)C(C)C :: 11.7 µM

Inquiry: Fill in: GI50 of CCC(CO)Nc1nc(NCc2ccccc2)c2n[nH]c(C(C)C)c2n1 (centres undefined) is ___
Reply text: 16.7 µM

Inquiry: Fill in: GI50 of `N#Cc1ccc2[nH]cc(Cc3c[nH]c4ccc(C#N)cc34)c2c1` is ___
Reply text: 12.5 µM

Inquiry: Fill in: GI50 of `N#Cc1c(N)c(C(=O)c2ccc3c(c2)OCCO3)n2c1CCCC2` is ___
Reply text: 1.12 µM

Inquiry: Fill in: GI50 of `O=C(Nc1ccc(Cl)cc1)c1cc(NCc2cc(O)ccc2O)ccc1O` is ___
Reply text: 4.43 µM

Inquiry: Fill in: GI50 of `O=c1oc2ccc(F)cc2c(=O)n1-c1ccc(I)cc1F` is ___
Reply text: 0.522 µM

Inquiry: Fill in: GI50 of `[Mn+3].[O-][Cl+3]([O-])([O-])O.[O-]c1ccccc1C=NCCN1CC1.[O-]c1ccccc1C=NCCN1CC1` is ___
Reply text: 19.3 µM

Inquiry: Fill in: GI50 of `N[C@@H](Cc1c[nH]c2ccccc12)C(=O)NC1CCN(Cc2c[nH]c3ccc(Cl)cc23)CC1` is ___
Reply text: 65.3 µM

Inquiry: Fill in: GI50 of `COc1ccc(NC(=O)c2ccc(C(F)(F)F)nc2Nc2ccc(Cl)cc2C)cc1Cl` is ___
Reply text: 3.17 µM

* * *

Test system: MOLT-4 leukemia
RUN_DESCRIPTION: NCI tumour cell line growth inhibition, 48 h
Collected TGI values appear next to each entry.

COc1nc(NC2OC(COC(C)=O)C(OC(C)=O)C(OC(C)=O)C2OC(C)=O)c(N=C(C)C(C)=O)c(=O)n1C (stereo not drawn) :: > 100 µM
O=C(CSc1nc2ccc(I)cc2c(=O)n1Cc1ccccc1)NNC(=S)Nc1ccccc1 :: > 100 µM
C=C1C2CC(OC(C)=O)C3(C)C(c4ccoc4)OC(=O)[C@@H](O)[C@]13OC1C[C@H](OC(C)=O)C(C)(C)[C@H](C(O)C(=O)OC)[C@]12C (stereo partly drawn) :: > 100 µM
Cc1cn(C(CO)OC(CO)CN(O)C2C3CC4CC(C3)CC2C4)c(=O)[nH]c1=O (stereo not drawn) :: > 100 µM
COc1ccc(-c2oc3ncnc(N)c3c2-c2ccc(NC(=O)Nc3cc(C(F)(F)F)ccc3F)cc2)cc1 :: 8.98 µM
C=C(C)[C@@]12C[C@H](OC(=O)[C@H](O)[C@@H](NC(=O)c3ccccc3)c3ccccc3)C(C)=C1[C@@H](OC(C)=O)C(=O)[C@@]1(C)C([C@@H]2OC(=O)c2cc(F)cc(F)c2)C2(OC(C)=O)CO[C@@H]2C[C@@H]1O (stereo partly drawn) :: 1.24 µM

Inquiry: Fill in: TGI of `CSc1ccc(Cc2cc(C(C)(C)C)cc(C(C)(C)C)c2O)cc1` is ___
Reply text: 23.8 µM

Inquiry: Fill in: TGI of `CCCCCCCCCCCCCCCCCC1=NC(C)(C)CN1C(C)(C)CO` is ___
Reply text: 4.05 µM

Inquiry: Fill in: TGI of `NC(=O)c1ccc(I)c([N+](=O)[O-])c1` is ___
Reply text: > 100 µM

Inquiry: Fill in: TGI of `COc1ccc(NC(=O)c2ccc(C(F)(F)F)nc2Nc2ccc(Cl)cc2C)cc1Cl` is ___
Reply text: 4.93 µM

Inquiry: Fill in: TGI of `CC(=O)N(N=O)c1ccc(N(N=O)C(C)=O)cc1` is ___
Reply text: > 100 µM

* * *

Collected TGI values appear next to each entry.
System: SW-620 colon
RUN_DESCRIPTION: NCI tumour cell line growth inhibition, 48 h
The figure you give is taken to be in µM; do not add the unit.

COc1ccc(NC(=O)c2ccc(C(F)(F)F)nc2Nc2ccc(Cl)cc2C)cc1Cl :: 14.7
CSc1ccc(Cc2cc(C(C)(C)C)cc(C(C)(C)C)c2O)cc1 :: 29.7
COc1ccc(-c2oc3ncnc(N)c3c2-c2ccc(NC(=O)Nc3cc(C(F)(F)F)ccc3F)cc2)cc1 :: 3.58
Cc1cc2c3c(nc2c2cc[nH]c(C)c12)CCCC3 :: 3.79
C=CCC1(CN(C)C)CC/C(=C\c2cc(OC)c(OC)c(OC)c2)C1=O (stereo not given) :: 33.6

--- query ---
Inquiry: Fill in: TGI of `O=c1oc2ccc(F)cc2c(=O)n1-c1ccc(I)cc1F` is ___
Reply text: 13.3

* * *

Test system: OVCAR-3 ovarian
RUN_DESCRIPTION: NCI tumour cell line growth inhibition, 48 h
VALUE_TYPE: GI50

Record excerpt, results attached:
COc1cc(OCCCN2CCCC2)ccc1Nc1ncc(Cl)c(Nc2ccccc2P(C)(C)=O)n1 :: 2750 nM
O=c1cc(-c2ccccc2)oc2c(O)c(O)ccc12 :: 2190 nM

Inquiry: Fill in: GI50 of `COc1ccc(-c2oc3ncnc(N)c3c2-c2ccc(NC(=O)Nc3cc(C(F)(F)F)ccc3F)cc2)cc1` is ___
Reply text: 1300 nM

Inquiry: Fill in: GI50 of `CC[C@H](C)[C@H](NC(=O)c1ncccn1)C(=O)N(C)[C@H](C[C@@H](OC(C)=O)c1nc(C(=O)N[C@@H](Cc2ccccc2)C[C@H](C)C(=O)OC)cs1)C(C)C` is ___
Reply text: 796 nM

Inquiry: Fill in: GI50 of `CCOc1ccc(Nc2ccnc3cc(Cl)ccc23)cc1` is ___
Reply text: > 100000 nM

Inquiry: Fill in: GI50 of `NC(=O)c1ccc(I)c([N+](=O)[O-])c1` is ___
Reply text: 55000 nM

* * *

Collected GI50 values appear next to each entry.
Tested on: LOX IMVI melanoma

Record excerpt, results attached:
COc1ccc(-c2c(NC(=O)Nc3ccc(Cl)c(C(F)(F)F)c3)cnn2-c2ccc(S(N)(=O)=O)cc2)cc1 :: 2750 nM
O=C(Nc1ccc(Cl)cc1)c1cc(NCc2cc(O)ccc2O)ccc1O :: 4100 nM
COc1ccc2c(c1)/C(=C\c1c(-c3ccccc3)nc3sccn13)C(=O)N2 :: 6090 nM
CCCCNC(=O)Oc1ccc(/C(=C(\C)c2ccc(OC)cc2)c2ccc(OCCN3CCCCC3)cc2)cc1 :: 1830 nM
COc1ccc2c(c1)C(=O)/C(=C/c1ccc(O)cc1)O2 :: 3290 nM
FC(F)(F)c1cccc(Oc2ccc(Nc3ncnc4ccc(OCCCN5CCOCC5)cc34)cc2Cl)c1 :: 1710 nM
N[C@@H](Cc1c[nH]c2ccccc12)C(=O)NC1CCN(Cc2c[nH]c3ccc(Cl)cc23)CC1 :: 2770 nM
COc1cc(OCCCN2CCCC2)ccc1Nc1ncc(Cl)c(Nc2ccccc2P(C)(C)=O)n1 :: 1320 nM

--- query ---
Inquiry: Look up GI50 with LOX IMVI melanoma for this compound: `CC1(C)CC[C@]2(C(=O)NCCNCCN)CC[C@]3(C)C(=CC[C@@H]4[C@@]5(C)CCC(=O)C(C)(C)[C@@H]5CC[C@]43C)[C@@H]2C1`
Reply text: 1810 nM
